For each of the sequences below, state its PBM E-score.
- TESTED_TARGET: Msn1 (UniProt P22148)
- Sequence: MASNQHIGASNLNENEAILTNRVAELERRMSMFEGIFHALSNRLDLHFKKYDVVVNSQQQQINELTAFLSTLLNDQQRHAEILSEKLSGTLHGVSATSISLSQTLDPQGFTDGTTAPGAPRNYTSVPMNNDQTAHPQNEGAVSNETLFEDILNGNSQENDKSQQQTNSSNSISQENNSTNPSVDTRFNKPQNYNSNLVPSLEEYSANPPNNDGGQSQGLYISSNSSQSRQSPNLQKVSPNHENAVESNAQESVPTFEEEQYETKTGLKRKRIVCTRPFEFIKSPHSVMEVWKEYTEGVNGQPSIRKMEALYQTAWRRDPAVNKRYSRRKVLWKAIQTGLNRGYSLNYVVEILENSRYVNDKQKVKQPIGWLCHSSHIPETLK
- MEASUREMENT_PROTOCOL: PBM E-score (8-mer binding enrichment) (E-score (-0.5 to 0.5)); higher = stronger / more preferred TF binding
- SETTINGS: protein concentration: 200 nM; construct: GST-full length
The full ranking holds about 33,000 sequences; the median of “E-score (-0.5 to 0.5)” is about -0.013, and the highest 2% start at about 0.3. The sample holds the highest values, similar sequences and a random draw of the others, so the mix is not that of the screen.
// keep it numeric: no unit symbol after the value

Using the record for `GACAATCC` , state its measured PBM E-score.
0.355

Write down PBM E-score measured for item `CACAATAC`
-0.0413

For the sequence `AACAATTA` , give its reported PBM E-score.
0.165

Please give the documented PBM E-score of `AACAATCC`
0.136

Return reported PBM E-score. Input sequence: `CGGCAGCC`
-0.118

Provide only the value of recorded PBM E-score for `CGCCAATC`
-0.0945

State, in one line, measured PBM E-score of `GCCCGGAA`
0.0421

For the sequence `AACAATAC` , report PBM E-score.
0.158

# return recorded PBM E-score for entry `GACAATTA`
0.426

Output PBM E-score of `CACAATTA`
0.128

Read the entry `TAATGGAA` and write its reported PBM E-score.
0.151

----------
- TESTED_TARGET: Msn1 (UniProt P22148)
- Sequence: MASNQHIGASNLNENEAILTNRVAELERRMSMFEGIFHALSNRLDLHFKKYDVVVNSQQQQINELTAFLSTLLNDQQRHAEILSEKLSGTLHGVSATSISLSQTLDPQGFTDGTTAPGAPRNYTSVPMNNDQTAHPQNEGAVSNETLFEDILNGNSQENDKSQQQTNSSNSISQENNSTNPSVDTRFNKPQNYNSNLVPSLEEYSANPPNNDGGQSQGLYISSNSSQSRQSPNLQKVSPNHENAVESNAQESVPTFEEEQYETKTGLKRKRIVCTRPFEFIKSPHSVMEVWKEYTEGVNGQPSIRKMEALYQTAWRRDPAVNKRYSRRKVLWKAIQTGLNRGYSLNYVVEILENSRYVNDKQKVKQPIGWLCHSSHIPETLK
- MEASUREMENT_PROTOCOL: PBM E-score (8-mer binding enrichment) (E-score (-0.5 to 0.5)); higher = stronger / more preferred TF binding
- SETTINGS: protein concentration: 200 nM; construct: GST-full length
Whole data set: some 33,000 sequences, median “E-score (-0.5 to 0.5)” near -0.013, cut for the highest 2% near 0.3. The sample as a whole holds a higher share of the highest values than the screen did.
Give yes (1) when the value for PBM E-score is at least 0.2. Give no (0) when it is less.

For this sequence, is measured PBM E-score 0.2 or higher? `GAGGGTAC`
no (0)

Reported PBM E-score at or above 0.2? `CTTTATGA`
no (0)

PBM E-score >= 0.2 for `GACATATC` ?
yes (1)

Is it the case that `CTCCGGAA` has PBM E-score reaching or exceeding 0.2?
no (0)

Does `AACGACAT` have a reported PBM E-score of at least 0.2?
yes (1)

In plain terms: is recorded PBM E-score at least 0.2 for `ATCCGGGA` ?
no (0)

Could you verify whether the entry `AATGACAT` shows PBM E-score of no less than 0.2?
yes (1)

Is PBM E-score for `GCCTAGTA` at or above 0.2?
no (0)

For this sequence, is measured PBM E-score 0.2 or higher? `CTCCGGGA`
no (0)

Quick check: does `CAGTTGTA` have PBM E-score greater than or equal to 0.2?
no (0)

Hello, I need to know if `AGCTTGAT` has measured PBM E-score not below 0.2. Thanks!
no (0)

Identify whether the reported PBM E-score of the following sequence is 0.2 or greater: `ATCCGGAA`
yes (1)

Check the entry `GACATAGA` : does PBM E-score equal or exceed 0.2?
yes (1)

Decide: PBM E-score of `ACTACGCA` >= 0.2?
no (0)

Is PBM E-score at least 0.2? Consider `CAGTTGTC`
yes (1)

API: above_or_equal(metric=PBM E-score, cutoff=0.2) for item `AAAGACCG`
no (0)

Form field: PBM E-score at least 0.2? Entry: `CCGTTGTC`
yes (1)

Assess whether reported PBM E-score for `TACACATA` sits at 0.2 or higher.
no (0)

Check the entry `GTCCGGAA` : does PBM E-score equal or exceed 0.2?
yes (1)

Is PBM E-score for `TACGACAA` at or above 0.2?
yes (1)

Could you tell me if the measured PBM E-score of `ATCCGGAC` reaches 0.2 or more?
yes (1)

Answer whether PBM E-score of `AATGACAG` is greater than or equal to 0.2.
no (0)

----------
Please provide measured PBM E-score for the entries that follow.
- TESTED_TARGET: Msn1 (UniProt P22148)
- Sequence: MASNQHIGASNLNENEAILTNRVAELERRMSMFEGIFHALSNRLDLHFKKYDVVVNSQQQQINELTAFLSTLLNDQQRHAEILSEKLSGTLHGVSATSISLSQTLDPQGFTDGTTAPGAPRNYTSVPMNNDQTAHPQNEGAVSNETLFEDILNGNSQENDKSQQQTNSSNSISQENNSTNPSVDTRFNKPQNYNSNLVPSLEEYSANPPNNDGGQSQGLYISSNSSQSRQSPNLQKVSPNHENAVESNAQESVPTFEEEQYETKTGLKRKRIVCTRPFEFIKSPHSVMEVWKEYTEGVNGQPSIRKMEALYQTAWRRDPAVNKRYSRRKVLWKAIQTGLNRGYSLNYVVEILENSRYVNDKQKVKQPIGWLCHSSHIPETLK
- MEASUREMENT_PROTOCOL: PBM E-score (8-mer binding enrichment) (E-score (-0.5 to 0.5)); higher = stronger / more preferred TF binding
- SETTINGS: protein concentration: 200 nM; construct: GST-full length
In all, about 33,000 sequences were measured (“E-score (-0.5 to 0.5)”: median about -0.013, highest 2% from about 0.3 on). For the sample, the highest values were picked, then their nearest neighbours and some sequences at random.
Respond numerically, and do not add a unit to the figure.

Item `TAGACATA` : provide PBM E-score
0.41

Indicate its recorded PBM E-score; the sequence in question is `ATAAAGTC`
0.305

Let me know recorded PBM E-score for `CACTACCG` , thanks.
-0.181

Please give the documented PBM E-score of `AAATGACA`
0.278

Look up PBM E-score of `AACTTGAA` and report it.
0.101

Tell me its PBM E-score given `TCATGACA` as the entry.
0.388

Tell us which PBM E-score value is on record for `TAGACAGA`
0.177

For the sequence `GAAAAGTC` , give its reported PBM E-score.
0.326

Hello, please tell me recorded PBM E-score for this one: `ACATTTCT`
0.204

Dear colleague, please send me the reported PBM E-score for `CCCTTGTC` when you can.
0.204

// Input: `GAATGACA` . Output its PBM E-score only.
0.34

# return recorded PBM E-score for input `AGCCATCC`
-0.277

Find the measured PBM E-score of `GAATGACC` and report it.
0.201

Input `ACATGACA` , output reported PBM E-score.
0.297

Return reported PBM E-score. Input sequence: `AGATTTTC`
0.0741

Could you please provide reported PBM E-score for `GAAAAGTA` ? Thanks!
0.167

Look up and report measured PBM E-score for this entry: `ACATTTTC`
0.337

Consider the sequence `GAAACGAA` . State its measured PBM E-score.
0.115

Fill in PBM E-score for record `ACATTTTA`
0.377

Give recorded PBM E-score. `ACATTTCA`
0.363

Dear colleague, please send me the reported PBM E-score for `AACTTGTG` when you can.
0.132

Please give the documented PBM E-score of `ACCCGAAG`
-0.0262
